# appliedConditions: 328.15 K; 101.3 kPa; Liquid; Vibrating tube method
measurementKind: mass density (kg/m3)

CCCCCCC [heptane] = 653.61
CCCC(=O)OCC [ethyl butanoate] = 841.55
CCCCCCCCC [nonane] = 690.17
CCCC(=O)OC [methyl butanoate] = 858.8

---

# appliedConditions: 298.15 K; 101.3 kPa; Liquid; Vibrating tube method
measurementKind: mass density (kg/m3)

CCCC(=O)OCC [ethyl butanoate] = 873.5
CCCCCCC [heptane] = 679.62
CCCCCCCCC [nonane] = 713.85
CCCC(=O)OC [methyl butanoate] = 892.31
